- assay: Pharmacokinetics in male CD-1 mice
- Format: in vivo
- test-conditions: mouse; PO 30 mg/kg, plasma, male CD-1 mice; predicted; read-out: Vz/F
measure-name: Vd/F (L/kg)
Respond with the bare value in L/kg.

Endpoint output: Vd/F of CNc1c(C(N)=O)c2ccccn2c1C(=O)c1ccc(F)cc1 [Compound A] . Value?
264

###

- system: YES/YES1 (Homo sapiens)
- Sequence (P07947 whole entry): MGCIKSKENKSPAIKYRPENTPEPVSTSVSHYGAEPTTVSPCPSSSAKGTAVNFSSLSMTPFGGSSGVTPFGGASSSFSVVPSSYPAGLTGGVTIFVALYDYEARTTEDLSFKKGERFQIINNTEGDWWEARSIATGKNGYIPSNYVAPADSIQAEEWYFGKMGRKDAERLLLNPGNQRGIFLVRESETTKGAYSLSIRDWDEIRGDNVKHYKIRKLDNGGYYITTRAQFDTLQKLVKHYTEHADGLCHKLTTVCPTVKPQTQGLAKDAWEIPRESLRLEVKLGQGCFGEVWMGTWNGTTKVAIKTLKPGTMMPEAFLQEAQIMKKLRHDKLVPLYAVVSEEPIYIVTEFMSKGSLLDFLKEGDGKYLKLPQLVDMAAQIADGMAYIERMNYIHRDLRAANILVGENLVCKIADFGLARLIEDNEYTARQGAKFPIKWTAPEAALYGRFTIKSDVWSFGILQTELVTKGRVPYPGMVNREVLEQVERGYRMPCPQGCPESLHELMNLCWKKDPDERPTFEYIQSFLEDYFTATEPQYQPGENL
- assay: Kinase selectivity, % remaining activity
- Assay type: biochemical
- test-conditions: 10 μM compound, 10 μM ATP, duplicate, read-out: % of remaining activity (relative to DMSO)
- Experimental: A two-tier strategy to determine the selectivity of compound A was applied: first, the compound was tested at a single concentration (in duplicate) to determine the %-remaining activity of the target kinase. Subsequently, the IC50 of compound A and comparative compounds for casein kinase 1 delta were determined. […]
remaining activity at 10 µM by entry:

Solved cases below.
substance_smiles=NC(=O)c1c(N)c(C(=O)c2ccc(F)cc2)n2ccccc12 measure_name="remaining activity at 10 µM" result=42.8%
substance_smiles=CNc1c(C(N)=O)c2ccccn2c1C(=O)c1ccc(F)cc1 measure_name="remaining activity at 10 µM" result=58.4%
substance_smiles=Nc1ncc(-c2nc3ccccc3o2)c(-c2ccncc2)n1 measure_name="remaining activity at 10 µM" result=108%

Using the record for Nc1ncnc2c1c(COc1cccc(Cl)c1)nn2C1CCOCC1 , report its remaining activity at 10 µM.
15.5%

Sample COc1ccc(C=C2N=C(c3cccs3)OC2=O)cc1 — what was its remaining activity at 10 µM?
99%
